Attribute: Phage binding ELISA signal, Anti-PSMA Fab with PSMA antigen
Biological target: T1, PSMA Fab (biotinylated (site not stated))
T1 construct: Biotinylated PSMA Fab captured on neutravidin plates in the phage ELISA; also called Anti-PSMA Fab; 006 PSMA Fab
Test: phage ELISA, biotinylated PSMA Fab on neutravidin plate, anti-M13-HRP detection, competitor PSMA antigen pre-incubated
Where no end group is shown, it is not given here.

Solved entries (count: 8):
* HEKWCTPPWMCELI [Phage-2654] | 0.0717
* DVKWCIPPWMCPSF [Phage-2650] | 0.0771
* APHLCIPKWMCNPS [Phage-2664] | 0.105
* MPKWCTPQWMCEMY [Phage-2658] | 0.0641
* GEHWCTPAWMCSVM [Phage-2659] | 0.68
* SNHLCTPPWMCYGF [Phage-2652] | 0.0665
* VVKWCTPAWMCSLN [Phage-2663] | 0.0846
* AIKWCIPAWMCAQA (cysteine pairing not given here; also: displayed on phage as pIII fusion) [Phage-2656] | 0.0786

Noted for ETKWCIPVWMCEHK [Phage-2653] : its Phage binding ELISA signal, Anti-PSMA Fab with PSMA antigen reads 0.122

Noted for LQKWCIPAWMCSST [Phage-2657] : its Phage binding ELISA signal, Anti-PSMA Fab with PSMA antigen reads 0.0717

Noted for DYKWCTPPWMCLVD [Phage-2662] : its Phage binding ELISA signal, Anti-PSMA Fab with PSMA antigen reads 0.083
